test system: Candida albicans; assay: Antifungal activity against Candida albicans Y0109 assessed as growth inhibition after 24 hr by NCCLS microbroth dilution method; assay type: functional; settings: Y0109, 24 h
result-type: MIC80 (µg/mL)
Note: unit µg/mL is implicit; provide only the numeric part.

{"molecule": "Cc1cc(=O)oc2cc(Oc3ccc(NC(=O)C(C)(C)C)cn3)ccc12", "MIC80, µg/mL": 4}
{"molecule": "Cc1cc(=O)oc2cc(Oc3ccc(NC(=O)C(F)(F)F)cn3)ccc12", "MIC80, µg/mL": 0.25}

Next molecule, please.
MIC80 for OC(Cn1cncn1)(Cn1cncn1)c1ccc(F)cc1F [FLUCONAZOLE] is 0.25
